# Test system: HeLa
# assayInfo: Concentration that induces 50% cell toxicity was determined using monolayers of uninfected HeLa cells
# Format: cell-based
# experimentalSetup: human, hela; read-out: Tox50
measuredAttribute: CC50 (nM)
Give the value, in units of nM, as a plain number.

What the record says about CC(=O)N[C@H]1[C@@H](O[C@@H]2O[C@H](CC(O)[C@H]3O[C@@H](n4ccc(=O)[nH]c4=O)[C@H](O)[C@@H]3O)[C@H](O)[C@H](O)[C@H]2NC(=O)/C=C/CC(C)C)O[C@H](CO)[C@@H](N)[C@@H]1O (stereo partly specified) : CC50 is 1000

Source: ChEMBL document CHEMBL1122931
